# Measurement notes: patients with anti-drug antibodies; higher = more immunogenic
Observation type: patients with anti-drug antibodies (%)
Quick note: give the figure in %, leave out the unit.

Answered examples (2):
unnamed (protein) chain 1: QLQLQESGPGLLKPSETLSLTCTVSGGSISSPGYYGGWIRQPPGKGLEWIGSIYKSGSTYHNPSLKSRVTISVDTSKNQFSLKLSSVTAADTAVYYCTRPVVRYFGWFDPWGQGTLVTVSS chain 2: AIQLTQSPSSLSASVGDRVTITCRASQGISSALAWYQQKPGKAPKLLIYDASNLESGVPSRFSGSGSGTDFTLTISSLQPEDFATYYCQQFNSYPTFGQGTKVEIK | 2.2
unnamed (protein) chain 1: EVQLVESGGGLVQPGGSLRLSCAASGFTFSRYSMSWVRQAPGKGLELVAQINSVGNSTYYPDTVKGRFTISRDNAKNTLYLQMNSLRAEDTAVYYCASGDYWGQGTLVTVSS chain 2: DVVMTQSPLSLPVTLGQPASISCRSSQSLIYSDGNAYLHWFLQKPGQSPRLLIYKVSNRFSGVPDRFSGSGSGTDFTLKISRVEAEDVGVYYCSQSTHVPWTFGQGTKVEIK | 3.5

Pending protein:
Give its patients with anti-drug antibodies value. Item: unnamed (protein) chain 1: EVQLVESGGGLVQPGGSLRLSCAASGFTFSSYVMSWVRQAPGKGLEWVATISSGGSYTYYPDSVKGRFTISRDNAKNTLYLQMNSLRAEDTAVYYCARRGDSMITTDYWGQGTLVTVSS chain 2: DIQMTQSPSSLSASVGDRVTITCKASQDVGTAVAWYQQKPGKAPKLLIYWASTRHTGVPSRFSGSGSGTDFTLTISSLQPEDFATYYCQQYSSYRTFGQGTKVEIK
0
